System: Phytophthora infestans
measurementNotes: whole plant or invertebrate
Type: in vivo
settings: tomato late blight; spray the day before inoculation; compounds without asterisk (not 40 or 10 ppm)
Measured Test C disease rating (100 = 100% disease control, 0 = no disease control) values are reported for all entries that follow.
recordedMetric: Test C disease rating (100 = 100% disease control, 0 = no disease control) (%)

compound	unitAbbreviation	reportedResult
Cc1cc(C(F)(F)F)nn1CC(=O)N1CCC(c2noc(C(=O)N(C)[C@H](C)c3ccccc3)n2)CC1	%	95
Cc1ccc(C)c(CC(=O)N2CCC(c3nc(C(=O)N(C)C(C)c4ccccn4)cs3)CC2)c1 (stereo not drawn)	%	100
CC(=O)OC1CCc2ccccc2C1N(C)C(=O)c1csc(C2CCN(C(=O)Cn3nc(C(F)(F)F)cc3C)CC2)n1 (stereo not drawn)	%	99
Cc1ccc(C)c(CC(=O)N2CCC(c3nc(C(=O)N(C)C(C)c4cc(C)oc4C)cs3)CC2)c1 (stereo not drawn)	%	97
CCCCC(c1ccccc1)N(C)C(=O)c1csc(C2CCN(C(=O)Cc3cc(C)ccc3C)CC2)n1 (stereo not drawn)	%	99
CN(Cc1ccncc1)C(=O)c1csc(C2CCN(C(=O)Cc3cccc(C(F)(F)F)c3)CC2)n1	%	68
Cc1ccc(C)c(CC(=O)N2CCC(c3nc(C(=O)N(C)C4CCOc5ccccc54)cs3)CC2)c1 (stereo not drawn)	%	51
Cc1ccc(C)c(CC(=O)N2CCC(c3nc(C(=O)N(C)[C@@H](C)c4ccccc4)cs3)CC2)c1	%	100
Cc1cc(C(F)(F)F)nn1CC(=O)N1CCC(c2nc(C(=O)N(C)C3c4ccccc4CC3O)cs2)CC1 (stereo not drawn)	%	99
Cc1ccc(C)c(CC(=O)N2CCC(c3nc(C(=O)N(C)C4CCSc5ccccc54)cs3)CC2)c1 (stereo not drawn)	%	100
Cc1cc(C(F)(F)F)nn1CC(=O)N1CCC(c2nc(C(=O)N(C)C(C)(C)c3ccccc3)cs2)CC1	%	99
C[C@H](c1ccccc1)N(C)C(=O)c1csc(C2CCN(C(=O)Cc3ccc(F)c(F)c3)CC2)n1	%	0
C[C@H](c1ccccc1)N(C)C(=O)c1csc(C2CCN(C(=O)Cc3cccc(C(F)(F)F)c3F)CC2)n1	%	100
Cc1cc(C(F)(F)F)nn1CC(=O)N1CCC(c2nc(C(=O)N(C)[C@H](C(N)=O)c3ccccc3)cs2)CC1	%	90
Cc1ccc(C)c(CC(=O)N2CCC(c3nc(C(=O)N(C)[C@H](C)c4ccccc4F)cs3)CC2)c1	%	100
